target-or-test-system: human Plasma Kallikrein (Homo sapiens (Human), UniProt P03952)
Sequence (P03952 20-638): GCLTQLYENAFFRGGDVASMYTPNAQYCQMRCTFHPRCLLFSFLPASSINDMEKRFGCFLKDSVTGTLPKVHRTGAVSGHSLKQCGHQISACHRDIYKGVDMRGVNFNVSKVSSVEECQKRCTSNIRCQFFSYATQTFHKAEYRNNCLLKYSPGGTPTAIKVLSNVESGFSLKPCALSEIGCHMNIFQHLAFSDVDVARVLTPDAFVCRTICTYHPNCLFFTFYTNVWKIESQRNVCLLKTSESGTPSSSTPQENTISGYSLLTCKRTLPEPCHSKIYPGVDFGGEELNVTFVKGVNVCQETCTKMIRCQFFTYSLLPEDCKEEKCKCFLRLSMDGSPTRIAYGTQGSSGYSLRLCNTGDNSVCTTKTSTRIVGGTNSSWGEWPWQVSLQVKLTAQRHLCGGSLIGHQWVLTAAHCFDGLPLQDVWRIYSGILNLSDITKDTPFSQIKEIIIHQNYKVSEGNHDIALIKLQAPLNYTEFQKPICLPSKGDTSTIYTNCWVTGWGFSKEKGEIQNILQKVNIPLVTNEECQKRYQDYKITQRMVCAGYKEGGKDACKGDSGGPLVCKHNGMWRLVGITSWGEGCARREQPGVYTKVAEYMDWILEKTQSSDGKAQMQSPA
measurement-protocol: In vitro enzyme inhibition of human plasma kallikrein (PFR-AMC cleavage)
Assay type: biochemical
assay-conditions: human plasma kallikrein, Pro-Phe-Arg-AMC substrate, 37° C.; read-out: hPK IC50
pIC50: −log10 of the molar value.
We begin with a simple list: items and their reported pIC50.

>>> df
                                   compound  reported_result
0  Cc1cc(N)nc(C)c1CNC(=O)c1ccnc(Cc2ccc3ncc(Cl)cc3c2)c1 [Example 35]           > 7.00

Problem: Form entry - test system: human Plasma Kallikrein (Homo sapiens (Human), UniProt P03952); read-out: pIC50; compound: CS(=O)(=O)c1ccc2cc(Cc3cc(C(=O)NCc4ccc5c(N)nccc5c4)ccn3)ccc2n1 [Example 134]
Solution: 6.00 to 7.00

Problem: // next record Cc1cnc2c(C(N)=O)cc(Cc3cc(C(=O)NCc4ccc5c(N)nccc5c4)ccn3)cc2c1 [Example 79]
Solution: > 7.00

Problem: Next compound up: Cc1cnc2c(C(N)=O)cc(Cc3cc(C(=O)NCc4cnc5[nH]cc(Cl)c5c4)ccn3)cc2c1 [Example 80]
Solution: > 7.00

Problem: Same question for CS(=O)(=O)c1ccc2ncc(Cc3cc(C(=O)NCc4cc5c(Cl)c[nH]c5cc4F)ccn3)cc2c1 [Example 12] please.
Solution: > 7.00
